test-system: T1, human CAPRIN-1 expressed on the surface of human cancer cells (human, UniProt Q14444 2-709); note: test concentration or dose not given here
T1 sequence: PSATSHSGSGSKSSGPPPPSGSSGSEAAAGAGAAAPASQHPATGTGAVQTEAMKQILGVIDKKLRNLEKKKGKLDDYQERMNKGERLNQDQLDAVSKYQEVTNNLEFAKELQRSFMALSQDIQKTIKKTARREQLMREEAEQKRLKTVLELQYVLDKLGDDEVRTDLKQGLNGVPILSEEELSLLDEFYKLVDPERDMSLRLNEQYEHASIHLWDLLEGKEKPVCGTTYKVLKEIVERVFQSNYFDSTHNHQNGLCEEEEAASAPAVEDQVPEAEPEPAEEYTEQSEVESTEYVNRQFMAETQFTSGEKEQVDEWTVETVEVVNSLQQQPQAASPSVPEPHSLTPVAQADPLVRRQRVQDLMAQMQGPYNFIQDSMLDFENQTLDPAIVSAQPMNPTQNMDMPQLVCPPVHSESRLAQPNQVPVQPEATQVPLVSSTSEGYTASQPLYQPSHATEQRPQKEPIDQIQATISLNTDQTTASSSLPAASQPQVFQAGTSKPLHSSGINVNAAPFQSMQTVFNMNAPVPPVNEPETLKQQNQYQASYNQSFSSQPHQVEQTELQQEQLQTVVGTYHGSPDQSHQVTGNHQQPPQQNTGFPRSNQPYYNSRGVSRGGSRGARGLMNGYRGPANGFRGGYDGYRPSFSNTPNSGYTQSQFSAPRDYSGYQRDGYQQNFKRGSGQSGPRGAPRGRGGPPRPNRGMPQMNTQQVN
assay-remarks: cell-based or functional assay
Listing of recorded ADCC cytotoxic activity (51Cr release) against QG56 by entry.

Use these answered entries as a reference point.
[[record]]
binder = "human-chicken chimeric monoclonal antibody #4 (antibody, V domains shown) VH: AVTLDESGGGLQTPGGAVSLVCKGSGFTFSSYGMGWVRQAPGKGLEYVAAIRKDGSTNYGPAVKGRATISRDNGQSTVRLQLSNLRAEDTATYYCAKRSHTGVNAAKIDAWGRGTEVIVS VL: ALTQPASVSANPGETVKITCSGASHNYGWFQQKSPGSAPVTVIYSNDKRPSDIPSRFSGSKSGSTATLTITGVQADDEAVYFCGGYNIYGPTFGAGTTLTV"
meas_value = "≥ 10%"

[[record]]
binder = "human-mouse chimeric monoclonal antibody #2 (antibody, human IgG1, kappa, V domains shown) VH: GGGLVKPGGSLKLSCAASGFTFSSYGMSWVRQTPEKRLEWVATISSGGSYTYYPDSVKGRFTISRDNAKNTLYLQMSSLRSEDTAMYYCASLASYYFDYWGQGTTLTVSS VL: GARCDVQMIQSPSSLSASLGDIVTMTCQASQGTSINLNWFQQKPGKAPKLLIYGASSLEDGVPSRFSGSCFGTDFTLTISSLEDEDMATYFCLQHSYLPPLTFGAGTKLELKR"
meas_value = "≥ 10%"

[[record]]
binder = "human-mouse chimeric comparative monoclonal antibody 4 (antibody, human IgG1, kappa, V domains shown) VH: EVQLHQFGAELVKPGASVKISCKASGYTFTDYNMDWVKQSHGKSLEWIGDINPNYDSTSYNQKFKGKATLTVDKSSSTAYMELRSLTSEDTAVYYCARSRSYDYEGFAYWGQGTLVTVSA VL: SGDRVSLSCRASQSISNYLHWYQQKSHESPRLLIKYASQSISGIPSRFSGSGSGTDFTLSINSVETEDFGMYFCQQSNSWPYTFGAGTKLEIKQ"
meas_value = "< 5%"

[[record]]
binder = "human-chicken chimeric monoclonal antibody #1 (antibody, V domains shown) VH: AVTLDESGGGLQTPGGALSLVCKASGFTFRSHSMFWVRQAPGKGLEYVAGIYGVGRSIRYGSAVKGRATMSRDNGQSTVRLQLNNLRAEDTATYYCAKSGYFSNSRYWDSGAYFIDAWGHGTEVIVS VL: ALTQPASVSANPGETVEITCSGGYSNYGWYQQKSPGSAPVTVIYYNDKRPSDIPSRFSGSKSGSTATLTITGVQAEDEAVYFCGGYDSSTDAGIFGAGTTLTV"
meas_value = "≥ 10%"


Below: the item to evaluate.
q: What ADCC cytotoxic activity (51Cr release) against QG56 value was documented for this binder, human-chicken chimeric monoclonal antibody #3 (antibody, V domains shown) VH: AVTLDESGGGLQTPGGGLSLVCKGSGFTFSSFGMFWVRQAPGKGLEFVASISDNGRSTYYGSAVKGRATISRDDGQSTVRLQLNNLRAEDTGTYYCAKNAYVGRGCCFSYSIDAWGHGTEVIVS VL: ALTQPASVSVNPGETVKITCSGGGSSSDAYGWYQQKSPGSAPVTLIYNGSNRPSHIPSRFSGSTSGSTNTLTITGVQVEDEAIYFCGSTDTSTSVGIFGAGTTLTV ?
a: ≥ 10%
